Reported Ki is given for each of the following compounds.
study_target: human RIP1 kinase domain (2-375) (Homo sapiens (Human), UniProt Q13546)
Sequence (Q13546 2-375): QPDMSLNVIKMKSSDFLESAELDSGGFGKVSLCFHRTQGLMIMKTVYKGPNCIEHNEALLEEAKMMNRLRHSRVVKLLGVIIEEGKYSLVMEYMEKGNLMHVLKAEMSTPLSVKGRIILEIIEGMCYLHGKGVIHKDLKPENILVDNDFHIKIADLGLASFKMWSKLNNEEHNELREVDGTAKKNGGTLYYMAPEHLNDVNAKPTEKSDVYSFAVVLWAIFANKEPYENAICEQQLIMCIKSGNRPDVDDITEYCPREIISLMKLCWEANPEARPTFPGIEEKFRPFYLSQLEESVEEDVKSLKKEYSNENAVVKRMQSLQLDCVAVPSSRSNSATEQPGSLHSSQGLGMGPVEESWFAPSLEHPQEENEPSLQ
protocol: biochemical
Format: biochemical
cond: tight-binding apparent inhibition constant; human RIP1 kinase domain (2-375) 50 nM, 50 uM ATP, 2 hours; read-out: Ki

// solved cases for Ki follow
CN1C(=O)C(NC(=O)c2ncn(Cc3ccccc3)n2)CCn2nc(CN3CCC(F)(F)C3)cc21 (single isomer, unassigned): 214 nM
Cc1cc(F)c2c(c1)OC[C@H](NC(=O)c1nc3cccc(C(F)(F)F)n3n1)C(=O)N2: 9.4 nM
CN1C(=O)[C@@H](NC(=O)c2nc3n(n2)[C@H](c2ccccc2)CC3)COc2ccccc21 (single isomer, unassigned): 71 nM
CN1C(=O)[C@@H](NC(=O)c2ncn(Cc3ccccc3)n2)CCn2nc(CN3CCOCC3)cc21 (single isomer, unassigned): 115 nM

Simply: CN1C(=O)[C@@H](NC(=O)c2nc3n(n2)C(c2cnn(C)c2)CCC3)CCn2nccc21 (stereo partly shown) , human RIP1 kinase domain (2-375) (Homo sapiens (Human), UniProt Q13546), Ki = 709 nM

Simply: CN1C(=O)[C@@H](NC(=O)c2ncc3cnn(C4CCCOC4)c3n2)COc2ccccc21 (stereo partly shown) , human RIP1 kinase domain (2-375) (Homo sapiens (Human), UniProt Q13546), Ki = 54 nM

Simply: CN1C(=O)[C@@H](NC(=O)c2nc3n(n2)CCC3c2ccccc2)COc2ccccc21 (stereo partly shown) , human RIP1 kinase domain (2-375) (Homo sapiens (Human), UniProt Q13546), Ki = 23 nM

----------
Reported Ki is given for each of the following molecules.
study_target: human RIP1 kinase domain (2-375) (Homo sapiens (Human), UniProt Q13546)
protocol: biochemical
Type: biochemical
cond: tight-binding apparent inhibition constant; human RIP1 kinase domain (2-375) 50 nM, 50 uM ATP, 2 hours; read-out: Ki
Output spec: scalar in µM, unitless text.

CN1C(=O)[C@@H](NC(=O)c2nc3c(-c4ccccc4)nccn3n2)COc2ccccc21 [Example 442]: 0.00783
Cc1cc(F)c2c(c1)OC[C@H](NC(=O)c1nc3n(n1)[C@@H](C(C)C)CC3)C(=O)N2 (single isomer, unassigned) [Example 354]: 0.0045
CN1C(=O)[C@@H](NC(=O)c2nc3n(n2)[C@H](c2cnn(C)c2)CCC3)COc2ccccc21 (racemic) [Example 411]: 6.5
CCC1CCc2nc(C(=O)N[C@H]3COc4ccccc4N(C)C3=O)nn21 (stereo partly drawn) [Example 355]: 0.0521

// Ki value for CN1C(=O)[C@@H](NC(=O)c2ncn(Cc3ccc(Cl)cc3)n2)CCn2nc(C(F)(F)F)cc21 [Example 532] : 0.024

// Ki value for CN1C(=O)[C@@H](NC(=O)c2ncn(Cc3ccc(Cl)cc3)n2)CCn2nc(C3CC3)cc21 (racemic) [Example 677] : 0.00758

// Ki value for CN1C(=O)C(NC(=O)c2ncn(Cc3ccccc3)n2)CCn2nc(CC3CC3)cc21 (stereo not drawn) [Example 456] : 0.051

// Ki value for CC[C@H]1CCc2nc(C(=O)N[C@H]3COc4ccccc4N(C)C3=O)nn21 (single isomer, unassigned) [Example 358] : 0.009

// Ki value for CN1C(=O)[C@@H](NC(=O)c2nc3c(-c4ccccc4)cccn3n2)COc2ccccc21 [Example 568] : 0.0081

// Ki value for CN1C(=O)[C@@H](NC(=O)c2ncn(Cc3cccc(Cl)c3Cl)n2)CCn2nc(C(F)(F)F)cc21 [Example 534] : 0.0076
